- System: Hepatitis C virus
- assay-comment: Antiviral activity against Hepatitis C virus genotype 1b expressed in ET cells after 48 hrs by luciferase reporter gene assay
- Assay type: functional, organism-based, Hepacivirus hominis
- recorded-conditions: Hepatitis C virus, genotype 1b, ET, 48 h
Note to self: use T only for IC50 readings below 20 nM; a reading exactly at 20 nM still gets F.

Example results:
INSERT INTO results (mol, category_label) VALUES
  ('COc1ncc(-c2ccc3nc(N)n(-c4ccccc4)c(=O)c3c2)cc1NS(=O)(=O)c1ccc(F)cc1F', 'T'),
  ('COc1ncc(-c2cc3cc(-c4ccccc4)c(N)nc3cn2)cc1NS(=O)(=O)c1ccc(F)cc1F', 'F'),
  ('COc1ncc(-c2ccc3nc(N)n(-c4ccccc4C)c(=O)c3c2)cc1S(=O)(=O)Nc1ccc(F)cc1F', 'T');

q: Threshold test, IC50 < 20 nM: COc1ncc(-c2ccc3nc(N)n(-c4ccccc4)c(=O)c3c2)cc1NS(=O)(=O)c1cccnc1
a: T

q: Same thing, different compound: COc1ncc(-c2ccc3nc(N)n(-c4ccccc4)c(=O)c3c2)cc1NS(=O)(=O)c1ccc(C#N)cc1
a: T

q: Ok, now COc1ncc(-c2ccc3nc(N)n(-c4cccc(C(F)(F)F)c4)c(=O)c3c2)cc1S(=O)(=O)Nc1ccc(F)cc1F
a: F

q: What would you report for COc1ncc(-c2ccc3nc(N)n(-c4ccccc4)c(=O)c3c2)cc1NS(=O)(=O)c1ccc(C)cc1 ?
a: T

q: Input COc1ncc(-c2cnc3nc(N)c(-c4ccccc4)cc3c2)cc1NS(=O)(=O)c1ccc(F)cc1F
a: F

###

I'd be grateful if you could share measured bioavailability for these entries.
- assay-comment: Oral bioavailability in Sprague-Dawley rat at 5 mg/kg
- Type: ADME, organism-based
- recorded-conditions: Sprague-Dawley, in vivo
One number for each entry, in %.

INSERT INTO results (mol, readout_label, u, experimental_value) VALUES
  ('COc1ncc(-c2ccc3nc(N)n(-c4ccccc4)c(=O)c3c2)cc1NS(=O)(=O)c1ccc(F)cc1F', 'bioavailability', '%', 60);

Please examine the following record next.
q: Which bioavailability is reported for this compound? COc1ncc(-c2ccc3nc(N)c(-c4ccc(N5CCOCC5)cc4)cc3c2)cc1NS(=O)(=O)c1ccc(F)cc1F
a: 38

###

Record form. Attribute: IC50. Fill in for each entry.
- target-under-test: Phosphatidylinositol 4,5-bisphosphate 3-kinase catalytic subunit gamma isoform (Homo sapiens)
- Sequence (P48736 whole entry, canonical isoform): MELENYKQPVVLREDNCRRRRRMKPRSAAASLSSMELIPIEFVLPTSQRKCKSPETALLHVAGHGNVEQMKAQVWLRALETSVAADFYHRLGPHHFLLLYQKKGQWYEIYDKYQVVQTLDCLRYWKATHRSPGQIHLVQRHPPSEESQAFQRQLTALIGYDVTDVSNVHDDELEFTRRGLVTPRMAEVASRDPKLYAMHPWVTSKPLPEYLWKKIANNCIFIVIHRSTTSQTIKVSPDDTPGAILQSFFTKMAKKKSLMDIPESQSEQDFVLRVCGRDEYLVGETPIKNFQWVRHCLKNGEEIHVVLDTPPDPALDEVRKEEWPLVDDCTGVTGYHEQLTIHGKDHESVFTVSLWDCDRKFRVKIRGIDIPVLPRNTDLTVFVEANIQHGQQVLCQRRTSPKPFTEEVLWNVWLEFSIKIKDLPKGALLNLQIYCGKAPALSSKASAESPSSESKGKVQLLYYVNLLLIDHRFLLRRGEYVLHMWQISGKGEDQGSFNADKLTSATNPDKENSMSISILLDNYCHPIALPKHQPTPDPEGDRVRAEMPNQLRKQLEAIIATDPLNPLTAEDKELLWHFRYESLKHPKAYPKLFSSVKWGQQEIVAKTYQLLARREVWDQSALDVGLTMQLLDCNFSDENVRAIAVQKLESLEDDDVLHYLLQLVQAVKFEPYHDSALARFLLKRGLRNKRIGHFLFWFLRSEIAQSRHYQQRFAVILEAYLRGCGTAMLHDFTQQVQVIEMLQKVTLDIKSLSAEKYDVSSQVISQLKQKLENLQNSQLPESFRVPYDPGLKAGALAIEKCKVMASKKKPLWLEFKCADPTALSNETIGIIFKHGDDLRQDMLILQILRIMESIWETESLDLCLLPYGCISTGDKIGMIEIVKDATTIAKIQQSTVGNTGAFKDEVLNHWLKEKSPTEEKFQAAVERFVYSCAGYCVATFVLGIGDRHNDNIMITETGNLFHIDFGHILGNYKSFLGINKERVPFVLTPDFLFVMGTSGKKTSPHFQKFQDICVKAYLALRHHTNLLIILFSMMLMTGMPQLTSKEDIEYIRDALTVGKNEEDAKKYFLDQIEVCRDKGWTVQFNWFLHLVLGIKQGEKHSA
Give bare numbers, in nM.

INSERT INTO results (compound, experimental_value) VALUES
  ('COc1ncc(-c2ccc3nc(N)n(-c4ccccc4C)c(=O)c3c2)cc1S(=O)(=O)Nc1ccc(F)cc1F', 316),
  ('COc1ncc(-c2ccc3nc(N)c(-c4ccccc4)nc3c2)cc1NS(=O)(=O)c1ccc(F)cc1F', 7.94),
  ('COc1ncc(-c2ccc3nc(N)n(C4CCOCC4)c(=O)c3c2)cc1S(=O)(=O)Nc1ccc(F)cc1F', 501),
  ('COc1ncc(-c2ccc3nc(N)n(-c4ccccc4)c(=O)c3c2)cc1NS(=O)(=O)c1cccnc1', 6.31);

Respectfully, I request IC50 for each entry included below.
1. COc1ncc(-c2ccc3nc(N)c(-c4ccc(N5CCOCC5)cc4)cc3c2)cc1NS(=O)(=O)c1ccc(F)cc1F
2. COc1ncc(-c2ccc3nc(N)n(-c4ccccc4C(F)(F)F)c(=O)c3c2)cc1S(=O)(=O)Nc1ccc(F)cc1F (atropisomer aS)
3. COc1ncc(-c2ccc3nc(N)n(-c4ccccc4)c(=O)c3c2)cc1NS(=O)(=O)c1cccc(C)c1

a:
631
2510
50.1

Hi! Can you tell me IC50 for each of these compounds?
1. COc1ncc(-c2ccc3nc(N)n(-c4cccc(C(F)(F)F)c4)c(=O)c3c2)cc1S(=O)(=O)Nc1ccc(F)cc1F
2. COc1ncc(-c2ccc3nc(N)n(-c4ccccc4C(F)(F)F)c(=O)c3c2)cc1S(=O)(=O)Nc1ccc(F)cc1F
3. COc1ncc(-c2ccc3nc(N)c(-c4ccccc4)cc3c2)cc1NS(=O)(=O)c1ccc(F)cc1F
4. COc1ncc(-c2ccc3nc(N)n(-c4ccccc4)c(=O)c3c2)cc1NS(C)(=O)=O

a:
[1580, 3160, 63.1, 794]

// input: 3 compounds below; output: IC50 for each
1. COc1ncc(-c2ccc3nc(N)n(-c4ccccc4)c(=O)c3c2)cc1S(=O)(=O)Nc1ccc(F)cc1F
2. COc1ncc(-c2ccc3nc(N)c(-c4ccccc4)cc3n2)cc1NS(=O)(=O)c1ccc(F)cc1F
3. COc1ncc(-c2cnc3nc(N)c(-c4ccccc4)cc3c2)cc1NS(=O)(=O)c1ccc(F)cc1F

a:
1: 1260; 2: 25100; 3: 6310
